- TARGET SYSTEM: steroid 17α-hydroxylase and/or steroid C17-20 lyase (Rattus norvegicus, UniProt P11715)
- Construct: the testis of rats (SD, male) was homogenized and centrifuged to obtain microsome; from tissue; host or cells: rat (SD, male) testis microsomes
- Sequence (P11715 1-507): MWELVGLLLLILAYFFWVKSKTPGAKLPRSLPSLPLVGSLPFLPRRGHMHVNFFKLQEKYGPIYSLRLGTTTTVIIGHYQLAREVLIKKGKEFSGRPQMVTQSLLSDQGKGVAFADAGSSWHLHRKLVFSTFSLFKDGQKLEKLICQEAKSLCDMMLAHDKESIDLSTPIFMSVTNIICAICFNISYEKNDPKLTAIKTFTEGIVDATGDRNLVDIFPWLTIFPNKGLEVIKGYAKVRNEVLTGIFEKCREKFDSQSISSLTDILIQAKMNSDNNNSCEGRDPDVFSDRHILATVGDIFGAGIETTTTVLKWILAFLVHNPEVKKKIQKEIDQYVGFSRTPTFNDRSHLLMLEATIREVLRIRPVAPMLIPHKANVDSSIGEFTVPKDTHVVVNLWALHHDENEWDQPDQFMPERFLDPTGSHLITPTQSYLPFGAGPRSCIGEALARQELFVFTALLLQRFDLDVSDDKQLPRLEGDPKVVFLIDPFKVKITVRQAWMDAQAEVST
- EXPERIMENTAL DETAILS: Measurement of steroid 17α-hydroxylase and/or steroid C17-20 lyase inhibitory activity (rat testis microsome)
- Format: biochemical
- ASSAY CONTEXT: test compound 300 nM, substrate 25 μM 17α-hydroxyprogesterone, NADPH 500 μM
Where a name gives a salt, the structure may show the parent alone.

{"COMPOUND": "Fc1cccc(-c2ccc3c(-c4cccnc4)coc3c2)c1", "TARGET SYSTEM": "steroid 17α-hydroxylase and/or steroid C17-20 lyase (Rattus norvegicus, UniProt P11715)", "inhibition at 0.3 µM": "45%"}
{"COMPOUND": "c1ccc(-c2ccc3c(-c4cccnc4)coc3c2)cc1 [Example 9, 3-(6-phenylbenzo[b]furan-3-yl)pyridine]", "TARGET SYSTEM": "steroid 17α-hydroxylase and/or steroid C17-20 lyase (Rattus norvegicus, UniProt P11715)", "inhibition at 0.3 µM": "45%"}
{"COMPOUND": "c1cncc(-c2ccc3c(-c4cccnc4)coc3c2)c1", "TARGET SYSTEM": "steroid 17α-hydroxylase and/or steroid C17-20 lyase (Rattus norvegicus, UniProt P11715)", "inhibition at 0.3 µM": "75%"}
{"COMPOUND": "c1cncc(-c2coc3cc(-c4ccsc4)ccc23)c1 [Example 13, hydrochloride]", "TARGET SYSTEM": "steroid 17α-hydroxylase and/or steroid C17-20 lyase (Rattus norvegicus, UniProt P11715)", "inhibition at 0.3 µM": "89%"}
{"COMPOUND": "Fc1ccc(-c2ccc3c(-c4cccnc4)coc3c2)cc1", "TARGET SYSTEM": "steroid 17α-hydroxylase and/or steroid C17-20 lyase (Rattus norvegicus, UniProt P11715)", "inhibition at 0.3 µM": "64%"}
{"COMPOUND": "Oc1ccc(-c2ccc3c(-c4cccnc4)coc3c2)cc1O [Example 12, hydrobromide]", "TARGET SYSTEM": "steroid 17α-hydroxylase and/or steroid C17-20 lyase (Rattus norvegicus, UniProt P11715)", "inhibition at 0.3 µM": "66%"}
{"COMPOUND": "Nc1cccc(-c2ccc3c(-c4cccnc4)coc3c2)c1", "TARGET SYSTEM": "steroid 17α-hydroxylase and/or steroid C17-20 lyase (Rattus norvegicus, UniProt P11715)", "inhibition at 0.3 µM": "90%"}
{"COMPOUND": "Oc1cccc(-c2ccc3c(-c4cccnc4)coc3c2)c1", "TARGET SYSTEM": "steroid 17α-hydroxylase and/or steroid C17-20 lyase (Rattus norvegicus, UniProt P11715)", "inhibition at 0.3 µM": "81%"}
